- System: OCI-AML2;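 note: after 48 h exposure read by CellTiter-Glo luminescence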
- RUN_DESCRIPTION: cell viability relative to vehicle control; higher = less cytotoxic
- COND: 10 µM; SRSF2 genotype: P95H/wt

| COMPOUND | cell viability (%) |
| --- | --- |
| Cc1nc2cc(F)c(F)cc2n1-c1cncc(Nc2ccc(C(F)(F)F)cc2)n1 | 6.57 |
| CNCCN(C)Cc1c[nH]nc1-c1ccc(O[C@H]2C[C@H](OCCC3CCOCC3)C2)cc1 | 67.1 |
| COc1c(O)cc2c(c1O)[C@@H]1O[C@H](CO)[C@@H](O)[C@H](O)[C@H]1OC2=O | 91 |
| C[C@H](CCC(=O)O)[C@H]1CC[C@H]2[C@@H]3[C@H](O)C[C@@H]4C[C@H](O)CC[C@]4(C)[C@H]3C[C@H](O)[C@]12C [Cholic acid] | 98.5 |
| CCCCC(=O)N(Cc1ccc(-c2ccccc2-c2nnn[nH]2)cc1)[C@H](C(=O)O)C(C)C | 101 |
| CC(C)(C)C(=O)OCOP(=O)(COCCn1cnc2c(N)ncnc21)OCOC(=O)C(C)(C)C | 0.85 |
| C[C@H](CCC(=O)O)[C@H]1CC[C@H]2[C@@H]3CC[C@@H]4C[C@H](O)CC[C@]4(C)[C@H]3CC[C@]12C | 107 |
